Tested on: HCT-116 colon
Assay: NCI tumour cell line growth inhibition, 48 h
Entries and their TGI values follow.
# value in µM; strip the unit string

Worked examples follow.
compound: COc1ccc(NC(=O)O[C@H]2[C@H](O[C@H]3[C@@H](O)COC(O[C@H]4C[C@H]5[C@@H]6CC=C7C[C@@H](O)CC[C@]7(C)[C@H]6CC[C@]5(C)[C@H]4[C@H](C)C(=O)CCC(C)C)[C@@H]3OC(C)=O)OC[C@@H](O)[C@@H]2O)cc1 (stereo not given in full)
TGI / µM: 14.4
--
compound: CC(OCc1ccccc1)C(NC(=O)C1CSSCC(NC(=O)C(Cc2ccccc2)NC(=O)OCc2ccccc2)C(=O)NC(Cc2ccccc2)C(=O)NC(Cc2cn(C=O)c3ccccc23)C(=O)NC(CCCCNC(=O)OCc2ccccc2)C(=O)NC(C(C)OCc2ccccc2)C(=O)N1)C(N)=O (stereo not given)
TGI / µM: 98.7
--
compound: Cn1c2c(cc(-c3ccccc3)c1=O)COc1ccccc1-2
TGI / µM: 37.9
--
compound: Oc1[nH]c2ccccc2c1N=NC(=S)N1CCCC1
TGI / µM: 21.5
--
compound: Cc1ccc(S(=O)(=O)NCCSS(=O)(=O)c2ccc(C)cc2)cc1
TGI / µM: 28.3

Requested field: TGI. Item: "C[N+](C)(Cc1ccc(NC(=O)CCCC(=O)ON2C(=O)CCC2=O)cc1)c1ccccc1"
18.2

Please give the measured TGI for this compound: "CN(C)CCOc1nc2ccccc2c2c1-c1ccc(Cl)cc1C2=O"
1.52

What value of measured TGI is listed for COc1cc2c3c(c1O)C1(C=CC(=O)C=C1)CC3N(C)CC2 (stereo not given) ?
14.5

Which value of TGI has been reported for "COc1ccc2[nH]c3c(C)c4cnccc4c(C)c3c2c1" in the records?
2.5
